system: Staph. aureus 209-P; test: Anti-bacterial activity (MIC), agar dilution; assay type: cell-based; conditions: Staphylococcus aureus, 209P, 18 h, Staph. aureus 209-P; agar dilution, about 10^6 CFU/ml, 18 hours, 37° C.; read-out: MIC
reported-endpoint: MIC (µg/mL)
Please state the figure in µg/mL; there is no need to write the unit.

Field MIC (entry `Nc1nc(/C(=N/OCF)C(=O)N[C@@H]2C(=O)N3C(C(=O)[O-])=C(/C=C/C[N+]4(CCO)CCCC4)CS[C@H]23)ns1` ) reads 0.2

Field MIC (entry `C[N+](C)(C/C=C/C1=C(C(=O)[O-])N2C(=O)[C@@H](NC(=O)/C(=N\OCF)c3nsc(N)n3)[C@H]2SC1)Cc1ccn[nH]1` ) reads 0.2

Field MIC (entry `CC(=N)N1CC[N+](C)(C/C=C/C2=C(C(=O)[O-])N3C(=O)[C@@H](NC(=O)/C(=N\OCF)c4nsc(N)n4)[C@H]3SC2)CC1` ) reads 0.2

Field MIC (entry `C[C@@H](C(N)=O)[N+](C)(C)C/C=C/C1=C(C(=O)[O-])N2C(=O)[C@@H](NC(=O)/C(=N\OCF)c3nsc(N)n3)[C@H]2SC1` ) reads 0.2

Field MIC (entry `C[N@@+]1(C/C=C/C2=C(C(=O)[O-])N3C(=O)[C@@H](NC(=O)/C(=N\OCC#N)c4nsc(N)n4)[C@H]3SC2)C[C@H](O)C[C@@H]1CO` ) reads 0.4

Field MIC (entry `C[N+](C)(C/C=C/C1=C(C(=O)[O-])N2C(=O)[C@@H](NC(=O)/C(=N\OCF)c3nsc(N)n3)[C@H]2SC1)CC(=O)NCCO` ) reads 0.4

###

Listed molecules paired with reported MIC
Tested on: Morganella morganii EP-14
Assay: Anti-bacterial activity (MIC), agar dilution
Assay type: cell-based
Settings: Morganella morganii, EP14, 18 h, about 10^6 CFU/ml, 37° C., read-out: MIC
Experimental: MIC (μg/ml) were determined by an agar dilution method [Chemotherapy (Japan), 29, 76-79, 1981]. Overnight cultures of the bacterial strains in Mueller-Hinton broth were diluted to final concentration of about 10^6 CFU/ml, and 5 μl of each bacterial suspension was spotted onto Mueller-Hinton agar plates that contained twofold serial dilutions of antibiotics. MICs were measured after incubation for 18 hours at 37° C.

As a guide, the following entries are already answered.
C[N+](C)(C/C=C/C1=C(C(=O)[O-])N2C(=O)[C@@H](NC(=O)/C(=N\OCF)c3nsc(N)n3)[C@H]2SC1)C(CO)(CO)CO	≤ 0.025 µg/mL
NC(=O)N1CC[N+](C/C=C/C2=C(C(=O)[O-])N3C(=O)[C@@H](NC(=O)/C(=N\OCF)c4nsc(N)n4)[C@H]3SC2)(CC(O)CO)CC1 (stereo partly shown)	0.05 µg/mL
Cc1c(CCO)sc[n+]1C/C=C/C1=C(C(=O)[O-])N2C(=O)[C@@H](NC(=O)/C(=N\OCF)c3nsc(N)n3)[C@H]2SC1	≤ 0.025 µg/mL
CNC(=O)[C@@H](C)[N+](C)(C)C/C=C/C1=C(C(=O)[O-])N2C(=O)[C@@H](NC(=O)/C(=N\OCF)c3nsc(N)n3)[C@H]2SC1	≤ 0.025 µg/mL
C[N+](C)(C/C=C/C1=C(C(=O)[O-])N2C(=O)[C@@H](NC(=O)/C(=N\OCF)c3nsc(N)n3)[C@H]2SC1)CC(=O)NCO	≤ 0.025 µg/mL
Nc1nc(/C(=N/OCF)C(=O)N[C@@H]2C(=O)N3C(C(=O)[O-])=C(/C=C/C[N+]4(CCO)CCC[C@@H]4CO)CS[C@H]23)ns1 (stereo partly shown)	≤ 0.025 µg/mL
N#CCO/N=C(\C(=O)N[C@@H]1C(=O)N2C(C(=O)[O-])=C(/C=C/C[N+](CCO)(CCO)CCO)CS[C@H]12)c1nsc(N)n1	0.05 µg/mL
NC(=O)C[N+]1(C/C=C/C2=C(C(=O)[O-])N3C(=O)[C@@H](NC(=O)/C(=N\OCF)c4nsc(N)n4)[C@H]3SC2)CCC[C@@H]1CO (stereo partly shown)	≤ 0.025 µg/mL

The reported Morganella morganii EP-14 MIC of `Nc1nc(/C(=N/OCF)C(=O)N[C@@H]2C(=O)N3C(C(=O)[O-])=C(/C=C/C[N+]4(CCO)CCOCC4)CS[C@H]23)ns1` is 0.05 µg/mL

The reported Morganella morganii EP-14 MIC of `Nc1nc(/C(=N/OCF)C(=O)N[C@@H]2C(=O)N3C(C(=O)[O-])=C(/C=C/C[n+]4ccc(C(=O)O)cc4)CS[C@H]23)ns1` is ≤ 0.025 µg/mL

The reported Morganella morganii EP-14 MIC of `C[N+](C)(C/C=C/C1=C(C(=O)[O-])N2C(=O)[C@@H](NC(=O)/C(=N\OCF)c3nsc(N)n3)[C@H]2SC1)Cc1ccn[nH]1` is ≤ 0.025 µg/mL

The reported Morganella morganii EP-14 MIC of `C[N+]1(C/C=C/C2=C(C(=O)[O-])N3C(=O)[C@@H](NC(=O)/C(=N\OCC#N)c4nsc(N)n4)[C@H]3SC2)CCN(S(N)(=O)=O)CC1` is 0.1 µg/mL

The reported Morganella morganii EP-14 MIC of `Nc1ccc[n+](C/C=C/C2=C(C(=O)[O-])N3C(=O)[C@@H](NC(=O)/C(=N\OCF)c4nsc(N)n4)[C@H]3SC2)c1` is ≤ 0.025 µg/mL
